phosphorylation enrichment by entry:
- Tested on: c-Abl (mouse);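 note: 11-residue human phosphosite peptides and single-mutation variants displayed on the E. coli surface, counted by deep sequencing, each peptide's frequency after selection divided by its frequency in the unselected input library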;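 note: frequency after pTyr selection over input frequency; kinase dosed for 20-30% of maximal phosphorylation in three min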
- measurementDescription: phosphorylation enrichment, bacterial display (enrichment ratio); higher = better substrate or ligand; peptides without Tyr show the background
// return a plain number; no unit text

The following sequences have reported results that may help.
For AGIENYKSRFG [NKD2_Y256_T257K] the sequence record lists phosphorylation enrichment as 0.512

For QDRTYYERVRT [SPEN_Y633_S635R] the sequence record lists phosphorylation enrichment as 0.639

Further cases:
For GVTLLCFGRFN [ADGRD1_Y85_Y85C_YF] the sequence record lists phosphorylation enrichment as 0.9

For KDGNGYISVAE [CALM3_Y100_A103V] the sequence record lists phosphorylation enrichment as 0.679

For EFAAGYNVKFD [GPX4_Y123] the sequence record lists phosphorylation enrichment as 0.389
